TARGET OR SYSTEM: human JAK2 catalytic kinase (JH1) domain (Homo sapiens (Human))
METHOD NOTES: ADP-Glo Kinase Assay, recombinant JAK2 catalytic kinase (JH1) domain
Format: biochemical
CONDITION LABEL: recombinant JH1 domain 0.2 nM, 15 μM ATP, JAK3-974 peptide, mean, read-out: JAK2 biochem IC50 (nM) Mean
MEASUREMENT KIND: IC50
Respond with the figure and its unit, in that order.

Example compounds with recorded IC50:
COMPOUND	IC50
Cn1cc(-c2cc3c(N4CC5CCC(C4)N5C(=O)C4CC4(F)F)ncnn3c2)cn1 (stereo not shown)	3050 nM
Cn1cc(-c2cc3c(N4CC5CCC(C4)N5C(=O)[C@H]4C[C@H]4F)ncnn3c2)cn1 (racemic) [Example 60]	8090 nM
O=C([C@@H]1C[C@H]1F)N1C2CCC1CN(c1ccnn3cc(C4CC4)cc13)C2	5900 nM

Now examine the next entry.
Prompt: Recorded IC50 for "COc1cc(-c2cc3c(N4CC5CCC(C4)N5C(=O)[C@@H]4C[C@H]4F)ccnn3c2)c(F)cn1" , please?
Completion: 325 nM

----------
TARGET OR SYSTEM: human JAK2 catalytic kinase (JH1) domain (Homo sapiens (Human))
METHOD NOTES: ADP-Glo Kinase Assay, recombinant JAK2 catalytic kinase (JH1) domain
Type: biochemical
CONDITION LABEL: recombinant JH1 domain 0.2 nM, 15 μM ATP, JAK3-974 peptide, mean, read-out: JAK2 biochem IC50 (nM) Mean
Procedure: Compounds of the disclosure were assessed for their ability to inhibit TYK2, JAK1, JAK2, and JAK3 activity. The inhibitory properties of the compounds of the disclosure described herein can be evidenced by testing in any one of the following protocols. The kinase activity of recombinantly generated catalytic kinase (also known as JH1) domain of human JAK1, JAK2, JAK3 and TYK2 were evaluated in a plate-based assay using the ADP-Glo™ Kinase Assay platform. […]
Where a name gives a salt, the structure may show the parent alone.
Threshold 8000 nM. IC50 below it: criterion met. IC50 at it or above: criterion not met.

Solved cases (2 shown):
COMPOUND	CLASSIFICATION
Cn1cc(-c2cc3c(N4CC5CCC(C4)N5C(=O)[C@@H]4C[C@H]4F)ncnn3c2)cn1 [Example 82]	criterion not met
O=C([C@H]1C[C@H]1F)N1C2CCC1CN(c1ncnn3cc(-c4cnn(C(F)F)c4)cc13)C2 (single isomer, unassigned) [Example 73]	criterion not met

Prompt: State whether 8000 nM exceeds IC50 recorded for CCOC1CC1C(=O)N1C2CCC1CN(c1ncnn3cc(-c4cnn(C(F)F)c4)cc13)C2 (stereo not shown) [Example 35, trifluoroacetate] .
Completion: criterion not met

Prompt: Bench note: check whether "O=C(C1CC1)N1C2CCC1CN(c1ncnn3cc(-c4cnn(CC5COC5)c4)cc13)C2" shows IC50 below 8000 nM
Completion: criterion met

Prompt: Consider "Cn1cc(-c2cc3c(N4CC5CCC(C4)N5C(=O)C4CC4)ncnn3c2)c(F)n1" . Does its IC50 lie strictly below 8000 nM?
Completion: criterion met

Prompt: Just wondering, is IC50 of "CNc1cc(-c2nc3c(N4CC5CCC(C4)N5C(=O)[C@@H]4C[C@H]4F)ccnc3[nH]2)ccn1" below 8000 nM?
Completion: criterion met

----------
TARGET OR SYSTEM: human JAK2 catalytic kinase (JH1) domain (Homo sapiens (Human), UniProt O60674)
Sequence (O60674 849-1124): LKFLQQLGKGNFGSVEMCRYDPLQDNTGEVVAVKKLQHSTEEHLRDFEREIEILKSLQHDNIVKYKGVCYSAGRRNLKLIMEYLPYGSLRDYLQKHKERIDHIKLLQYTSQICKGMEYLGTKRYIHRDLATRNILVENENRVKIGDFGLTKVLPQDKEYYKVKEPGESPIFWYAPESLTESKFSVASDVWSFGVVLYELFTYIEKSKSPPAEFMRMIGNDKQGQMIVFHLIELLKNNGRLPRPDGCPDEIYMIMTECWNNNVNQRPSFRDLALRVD
METHOD NOTES: ADP-Glo Kinase Assay, recombinant JAK2 catalytic kinase (JH1) domain
Format: biochemical
CONDITION LABEL: recombinant JH1 domain 0.2 nM, 15 μM ATP, JAK3-974 peptide, mean, read-out: JAK2 biochem IC50 (nM) Mean
log10(IC50) values for the compounds below.
# log10 transformed; quantity=IC50; unit=nM

Answered cases to consult:
COMPOUND	log10(IC50)
O=C([C@H]1C[C@@H]1F)N1C2CCC1CN(c1ncnn3cc(-c4cnn(C(F)F)c4)cc13)C2 (racemic) [Example 54]	3.12
COc1cncc(-c2cc3c(N4CC5CCC(C4)N5C(=O)[C@@H]4C[C@H]4F)ccnn3c2)n1	2.59
COc1cnc(-c2cc3c(N4CC5CCC(C4)N5C(=O)[C@@H]4C[C@H]4F)ccnn3c2)cn1	2.85
Cn1cc(-c2cc3c(N4CC5CCC(C4)N5C(=O)[C@@H]4C[C@@H]4F)ncnn3c2)cn1	3.90

Prompt: Which log10(IC50) is reported for this compound? "Cc1cc(-c2cc3c(N4CC5CCC(C4)N5C(=O)[C@@H]4C[C@H]4F)ncnn3c2)ccn1"
Completion: 2.80

Prompt: Name the reported log10(IC50) value associated with the compound O=C([C@@H]1C[C@H]1F)N1C2CCC1CN(c1ccnc3[nH]c(C4CCOC4)nc13)C2 (stereo partly shown)
Completion: 4.00

Prompt: Which measured log10(IC50) value corresponds to "Cn1cc(-c2cc3c(N4CC5CCC(C4)N5C(=O)[C@@H]4C[C@H]4F)ncnn3c2)c(F)n1" ?
Completion: 2.63

----------
TARGET OR SYSTEM: human JAK3 catalytic kinase (JH1) domain (Homo sapiens (Human), UniProt P52333)
Sequence (P52333 822-1111): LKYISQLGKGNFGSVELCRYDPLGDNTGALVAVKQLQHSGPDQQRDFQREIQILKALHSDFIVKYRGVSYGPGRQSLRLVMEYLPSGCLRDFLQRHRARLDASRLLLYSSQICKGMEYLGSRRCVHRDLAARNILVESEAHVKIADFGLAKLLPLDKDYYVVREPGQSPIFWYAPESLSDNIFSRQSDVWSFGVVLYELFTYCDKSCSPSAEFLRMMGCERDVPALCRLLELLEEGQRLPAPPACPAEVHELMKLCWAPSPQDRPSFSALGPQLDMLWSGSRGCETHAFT
METHOD NOTES: ADP-Glo Kinase Assay, recombinant JAK3 catalytic kinase (JH1) domain
Assay type: biochemical
CONDITION LABEL: recombinant JH1 domain 0.3 nM, 4 μM ATP, JAK3-974 peptide, mean, read-out: JAK3 biochem IC50 (nM) Mean
MEASUREMENT KIND: log10 IC50 (log10 of the value in nM)
In plain terms, each number is the log10 of measured IC50 in nM.

COMPOUND	log10 IC50
COc1cnc(-c2cc3c(N4CC5CCC(C4)N5C(=O)[C@@H]4C[C@H]4F)ccnn3c2)cn1	3.87
O=C([C@@H]1C[C@H]1F)N1C2CCC1CN(c1ccnc3[nH]c(-c4ccnnc4)nc13)C2	3.43

Prompt: Entry "Cn1cc(-c2cc3c(N4CC5CCC(C4)N5C(=O)[C@@H]4C[C@H]4F)ncnn3c2)cc(F)c1=O" : reported log10 IC50 = ?
Completion: 4.00

Prompt: GET /values?readout=log10 IC50&item= "Cn1cc(-c2nc3c(N4CC5CCC(C4)N5C(=O)[C@@H]4C[C@H]4F)ccnc3[nH]2)c(F)n1"
Completion: 2.37

Prompt: Query: log10 IC50; subject: O=C(C1CC1)N1C2CCC1CN(c1ncnn3cc(-c4cnn(C(F)F)c4)cc13)C2 [Example 144]
Completion: 4.00

Prompt: So what's the measured log10 IC50 for this one? "Cc1cc(-c2cc3c(N4CC5CCC(C4)N5C(=O)[C@@H]4C[C@H]4F)ccnn3c2)ccn1"
Completion: 2.88

Prompt: # log10 IC50 lookup, item "COc1ccc(-c2cc3c(N4CC5CCC(C4)N5C(=O)C4CC4)ncnn3c2)cn1"
Completion: 3.80

Prompt: Form field: reported log10 IC50 of "O=C([C@@H]1C[C@H]1F)N1C2CCC1CN(c1ccnn3cc(-c4ccnc(F)c4)cc13)C2"
Completion: 2.54

----------
TARGET OR SYSTEM: human JAK1 catalytic kinase (JH1) domain (Homo sapiens (Human), UniProt P23458)
Sequence (P23458 875-1153): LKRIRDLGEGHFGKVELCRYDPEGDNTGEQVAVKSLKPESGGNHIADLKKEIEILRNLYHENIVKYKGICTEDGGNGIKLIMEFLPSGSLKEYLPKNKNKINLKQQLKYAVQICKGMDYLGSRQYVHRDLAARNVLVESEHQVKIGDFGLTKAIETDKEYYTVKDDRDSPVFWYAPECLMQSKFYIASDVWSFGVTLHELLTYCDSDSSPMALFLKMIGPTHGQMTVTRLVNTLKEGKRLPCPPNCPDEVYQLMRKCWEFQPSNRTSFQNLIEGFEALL
METHOD NOTES: ADP-Glo Kinase Assay, recombinant JAK1 catalytic kinase (JH1) domain
Assay type: biochemical
CONDITION LABEL: recombinant JH1 domain 4 nM, 35 μM ATP, JAK3-342 peptide, mean, read-out: JAK1 biochem IC50 (nM) Mean
In this section, each of the molecules is paired with its reported IC50.
Only the number, expressed in nM, is required.

Consider the following illustrative entries.
MOLECULE	UNIT SYMBOL	IC50
Cc1cncc(-c2cc3c(N4CC5CCC(C4)N5C(=O)[C@@H]4C[C@H]4F)ccnn3c2)n1	nM	806
N#C[C@H]1C[C@@H]1C(=O)N1C2CCC1CN(c1ncnn3cc(-c4cnn(C(F)F)c4)cc13)C2 (racemic)	nM	840

Prompt: Need IC50, item "Cc1cnc(-c2cc3c(N4CC5CCC(C4)N5C(=O)[C@@H]4C[C@H]4F)ccnn3c2)cn1"
Completion: 562

Prompt: If you can, please state the reported IC50 value of "COc1ccc(-c2cc3c(N4CC5CCC(C4)N5C(=O)[C@@H]4C[C@H]4F)ccnn3c2)cn1" .
Completion: 54

Prompt: Quick one: IC50 of Cn1cc(-c2cc3c(N4CC5CCC(C4)N5C(=O)[C@H]4C[C@H]4C#N)ncnn3c2)cn1 (single isomer, unassigned) [Example 85] ?
Completion: 3310

Prompt: Record request: IC50 value, item "COc1ccc(-c2cc3c(N4CC5CCC(C4)N5C(=O)[C@@H]4C[C@H]4F)ncnc3[nH]2)cn1"
Completion: 245

Prompt: Endpoint output: IC50 of O=C(C1C[C@H]1F)N1C2CCC1CN(c1ncnc3[nH]c(-c4ccncc4F)cc13)C2 (stereo partly drawn) . Value?
Completion: 226

Prompt: Any idea what its IC50 is? The molecule is "O=C(N1C2CCC1CN(c1ncnn3cc(-c4cnn(C(F)F)c4)cc13)C2)C(F)(F)F"
Completion: 1030

Prompt: I am curious: what IC50 value has been reported for "Cn1cc(-c2cc3c(N4CC5CCC(C4)N5C(=O)[C@@H]4C[C@H]4F)ncnn3c2)ccc1=O" ?
Completion: 478

Prompt: What value of measured IC50 is listed for "Cn1cnc(-c2cc3c(N4CC5CCC(C4)N5C(=O)C4CC4)ncnn3c2)c1" ?
Completion: 10000
